Test system: RPMI-8226 leukemia
method: NCI-60 one-dose screen, 48 h (100 = growth as untreated, 0 = no growth, -100 = all killed)
assay-setup: 10 µM unless noted
About 83,000 compounds went through this panel and 20% of them were active in at least one assay; those are over-represented in the sample as a whole. The source made the active and inactive calls. The calls were made as follows: active = growth percent below 10; inactive = the rest.
Give measured growth for each item. Keep answers brief.

Consider the following illustrative entries.
CCOc1nc(-c2ccccc2)cc2c(O)c(C(=O)N/N=C/c3ccccc3)[nH]c(=O)c12 = 97.6% (inactive)
Oc1c(Br)cc(Br)c2ccc(Cn3cc(-c4ccccc4C(F)(F)F)nn3)nc12 = 45.4% (inactive)
O=C(Cn1cc(CSc2nc3ccccc3o2)nn1)Nc1ccc(F)cc1F = 114% (inactive)
N#Cc1ccc(O)c(C2=NCC(c3ccccc3)O2)c1 (stereo not drawn) = 33.3% (inactive)

Parameter requested: growth. Apply to each item below.
1. NNc1nc(-c2cccnc2)nc2c1sc(=S)n2-c1ccccc1
2. CCC(C)(C)C(=O)O[C@H]1C[C@@H](C)C=C2C=C[C@H](C)[C@H](CC[C@@H]3CC(SCCN)CC(=O)O3)[C@H]21 (stereo partly drawn)
3. O=C1C(=O)N(Cc2ccc(-c3ccccc3)cc2)c2ccc(OC(F)(F)F)cc21
4. NS(=O)(=O)c1ccc(N=Nc2c(O)n(Cc3ccccc3)c3ccc(Cl)cc23)cc1
5. CC(C)(C)[Si](C)(C)OC1[C@@H](CNC(=O)NC(=O)NC(N)=O)O[C@@H](n2cnc3c(NC(=O)Nc4ccccc4)ncnc32)[C@H]1O[Si](C)(C)C(C)(C)C (stereo partly drawn)
6. Cc1cc(C(=O)Nc2ncc(Cc3cccc(C(F)(F)F)c3)s2)c2ccccc2n1

Response:
106% (inactive)
6.62% (active)
-5.6% (active)
90.7% (inactive)
69.1% (inactive)
33.9% (inactive)

Parameter requested: growth. Apply to each item below.
1. O=S(=O)(Nc1ccc(Cl)c(C(F)(F)F)c1)c1ccc(-c2cnc(C3CC3)o2)cc1
2. Nc1c(C(=O)Nc2ccccc2C(F)(F)F)sc2nc3c(cc12)CCC3
3. COc1cc(-c2nc3sccn3c2-c2ccnc(NCCNS(=O)(=O)c3ccccc3)n2)ccc1F

Response:
8.83% (active)
110% (inactive)
31% (inactive)
